Source listed as patent US20210095028A1.

Tested On: T1, cynomolgus TIGIT over-expressed on CHO-K1 cells (cynomolgus, UniProt A0A7N9I9V4 89-312)
T1 construct: whole, on cells; also called CHO-K1/cynomolgus TIGIT cells
T1 sequence (A0A7N9I9V4 entry or part of it): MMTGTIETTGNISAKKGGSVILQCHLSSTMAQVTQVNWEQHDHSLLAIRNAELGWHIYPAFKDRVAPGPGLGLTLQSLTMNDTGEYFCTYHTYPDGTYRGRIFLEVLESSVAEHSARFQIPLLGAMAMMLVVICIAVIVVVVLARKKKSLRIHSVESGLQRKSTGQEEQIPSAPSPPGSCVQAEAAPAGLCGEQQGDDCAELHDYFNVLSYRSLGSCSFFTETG
Assay Text: FACS, CHO-K1 cells over-expressing cynomolgus TIGIT
Parameter: Bottom (best-fit)
Please give only the number in your answer, with no unit.

Requested field: Bottom (best-fit). Item: 64G1E9B4VH1_VL1.M1 (antibody, human IgG1, V domains shown, Humanized antibody, variable domains fused with the constant region of human IgG1; also called 64G1VH1_VL1.M1) VH: EVQLVQSGAEVKKPGSSVKVSCKASGYTFTEHVIHWVRQAPGQGLEWMGGFNPNHDGTIYNQIFRGRVTITADKSTSTAYMELSSLRSEDTAVYYCARAAKLLFAMDYWGQGTTVTVSS VL: DIQMTQSPSSLSASVGDRVTITCRASQHVSNAVVWYQQKPGKAPKLLIYSPSYRFTGVPSRFSGSGSGTDFTLTISSLQPEDFATYYCQQHYSTPWTFGGGTKVEIK
3010

Request: 64G1E9B4VH1.M1_VL1.M1 (antibody, human IgG1, V domains shown, Humanized antibody, variable domains fused with the constant region of human IgG1; also called 64G1VH1.M1_VL1.M1) VH: EVQLVQSGAEVKKPGSSVKVSCKASGYTFTEHVIHWVRQAPGQGLEWMGGFNPNHGGTIYNQIFRGRVTITADKSTSTAYMELSSLRSEDTAVYYCARAAKLLFAMDYWGQGTTVTVSS VL: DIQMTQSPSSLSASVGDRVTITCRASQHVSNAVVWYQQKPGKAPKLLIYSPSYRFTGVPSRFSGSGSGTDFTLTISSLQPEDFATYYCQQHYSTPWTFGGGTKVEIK
5530

Request: 64G1E9B4 chimeric (antibody, V domains shown, also called 64G1 Chimeric) VH: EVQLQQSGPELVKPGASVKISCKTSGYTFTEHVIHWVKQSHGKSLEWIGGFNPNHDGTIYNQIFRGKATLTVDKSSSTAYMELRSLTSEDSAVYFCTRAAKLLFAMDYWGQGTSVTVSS VL: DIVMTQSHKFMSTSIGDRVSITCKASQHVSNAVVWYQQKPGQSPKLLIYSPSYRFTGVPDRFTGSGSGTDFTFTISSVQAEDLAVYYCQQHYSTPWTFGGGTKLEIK
3920

Request: 100C4E7D11 chimeric (antibody, V domains shown, also called 100C4 Chimeric) VH: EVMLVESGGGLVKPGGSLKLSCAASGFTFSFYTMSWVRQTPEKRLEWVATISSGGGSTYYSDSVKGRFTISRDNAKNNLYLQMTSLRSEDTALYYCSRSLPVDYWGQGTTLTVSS VL: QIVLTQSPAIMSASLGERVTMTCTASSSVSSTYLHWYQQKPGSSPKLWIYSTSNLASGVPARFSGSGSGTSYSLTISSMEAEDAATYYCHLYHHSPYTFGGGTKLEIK
4880
